Cited source for all entries: patent US20230210845A1

Test: clinical
Conditions: human, in vivo, po, 50 mg
Quantity kind: Tmax

Request: Given the entry COc1ccc(CN2CCNCC2)c(OC)c1OC , report its measured Tmax.
Result: 1 to 2 h

----------
Assay: clinical
Conditions: human, plasma, oral
Quantity kind: half-life

Request: Given the entry COc1ccc(CN2CCNCC2)c(OC)c1OC , report its measured half-life.
Result: 6.76 to 8 h

----------
Experiment: clinical
Conditions: human, in vivo
Quantity kind: Tmax

Request: Given the entry COc1ccc(CN2CCNCC2)c(OC)c1OC , report its measured Tmax.
Result: 1.5 to 2 h

----------
Test: SAD part: PK in urine (urinary excretion, renal clearance)
Assay type: in vivo, human (healthy subjects)
Details: human, urine, po, 35 mg; read-out: geometric mean renal clearance (CLR) (converted)
Quantity kind: CL renal

Request: Given the entry COc1ccc(CN2CCNCC2)c(OC)c1OC , report its measured CL renal.
Result: 340 mL/min

----------
Test: clinical
Design: species or system human (healthy subjects)
Settings: human, in vivo, po, 35 mg
Quantity kind: Cmax (µg/mL)
Please respond with the number in µg/mL and leave the unit unwritten.

Request: Given the entry COc1ccc(CN2CCNCC2)c(OC)c1OC [trimetazidine] , report its measured Cmax.
Result: 0.0686

----------
Assay: SAD part: PK in urine (urinary excretion, renal clearance)
Assay type: in vivo, human (healthy subjects)
Conditions: human, urine, oral; range over single doses 50 mg to 400 mg IMB-1018972; read-out: geometric mean renal clearance (CLR) (converted)
Quantity kind: CL renal

Request: Given the entry COc1ccc(CN2CCNCC2)c(OC)c1OC [trimetazidine] , report its measured CL renal.
Result: 302 to 347 mL/min

----------
Experiment: clinical
Set-up: species or system human (healthy subjects)
Conditions: human, in vivo, po, 35 mg
Quantity kind: half-life (h)
Please respond with the number in h and leave the unit unwritten.

Request: Given the entry COc1ccc(CN2CCNCC2)c(OC)c1OC , report its measured half-life.
Result: 7.49

----------
Experiment: clinical
Parameters: species or system human (healthy subjects)
Details: human, in vivo, po, 35 mg
Quantity kind: AUC(0-t) (ng·h/mL)
Please respond with the number in ng·h/mL and leave the unit unwritten.

Request: Given the entry COc1ccc(CN2CCNCC2)c(OC)c1OC , report its measured AUC(0-t).
Result: 912

----------
Assay: clinical
Type: in vivo, human (healthy subjects)
Settings: human, plasma, oral, 150 mg, 150 mg IMB-1018972, fasted (FE group), read-out: median tmax
Quantity kind: Tmax (h)
Please respond with the number in h and leave the unit unwritten.

Request: Given the entry COc1ccc(CN2CCNCC2)c(OC)c1OC , report its measured Tmax.
Result: 1.5
